Molecular target: Voltage-gated inwardly rectifying potassium channel KCNH2 (Homo sapiens, UniProt Q12809)
Sequence (Q12809 whole entry): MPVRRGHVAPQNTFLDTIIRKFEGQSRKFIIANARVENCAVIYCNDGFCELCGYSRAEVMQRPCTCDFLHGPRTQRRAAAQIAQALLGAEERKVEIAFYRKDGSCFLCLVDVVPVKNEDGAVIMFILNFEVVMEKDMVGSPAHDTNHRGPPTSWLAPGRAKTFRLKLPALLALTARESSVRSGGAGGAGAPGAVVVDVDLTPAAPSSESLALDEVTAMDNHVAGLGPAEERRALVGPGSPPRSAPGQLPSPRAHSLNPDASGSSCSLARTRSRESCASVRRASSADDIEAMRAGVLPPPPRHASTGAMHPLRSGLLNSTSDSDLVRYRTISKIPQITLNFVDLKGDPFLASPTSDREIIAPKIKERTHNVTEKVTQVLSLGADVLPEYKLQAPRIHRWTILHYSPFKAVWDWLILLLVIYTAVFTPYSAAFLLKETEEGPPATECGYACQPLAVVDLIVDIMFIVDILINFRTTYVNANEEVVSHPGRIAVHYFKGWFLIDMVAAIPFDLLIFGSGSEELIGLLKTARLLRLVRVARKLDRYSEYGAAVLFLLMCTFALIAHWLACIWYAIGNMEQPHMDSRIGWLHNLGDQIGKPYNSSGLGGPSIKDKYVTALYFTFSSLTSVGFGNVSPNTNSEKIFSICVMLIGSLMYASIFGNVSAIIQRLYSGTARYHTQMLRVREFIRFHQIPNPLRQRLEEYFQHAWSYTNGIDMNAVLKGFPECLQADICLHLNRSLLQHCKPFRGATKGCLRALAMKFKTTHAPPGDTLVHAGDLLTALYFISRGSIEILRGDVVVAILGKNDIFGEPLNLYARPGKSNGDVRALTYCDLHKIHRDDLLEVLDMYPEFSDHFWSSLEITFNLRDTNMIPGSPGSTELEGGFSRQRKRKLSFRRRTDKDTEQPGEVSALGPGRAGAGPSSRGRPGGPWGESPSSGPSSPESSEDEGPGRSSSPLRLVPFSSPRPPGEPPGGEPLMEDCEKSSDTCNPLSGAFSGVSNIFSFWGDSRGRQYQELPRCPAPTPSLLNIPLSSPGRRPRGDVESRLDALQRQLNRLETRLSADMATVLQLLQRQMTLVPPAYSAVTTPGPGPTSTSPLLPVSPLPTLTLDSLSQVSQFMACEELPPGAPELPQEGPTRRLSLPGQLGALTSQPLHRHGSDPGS
Test: Inhibition of hERG potassium channel expressed in CHO cells by whole cell patch clamp method
READOUT_TYPE: IC50 (µM)

- MOL: "C[C@@H]1CNC[C@H]2Cc3ccc(Cl)nc3N21"
  READOUT_TYPE: "IC50"
  COMPARATIVE_SIGN: "="
  TEST_RESULT: 40
- MOL: "Cc1ccc2c(n1)N1[C@@H](CNC[C@H]1C)C2"
  READOUT_TYPE: "IC50"
  COMPARATIVE_SIGN: "="
  TEST_RESULT: 21
- MOL: "C[C@@H]1CNC[C@H]2Cc3ccc(COCC4CC4)nc3N21"
  READOUT_TYPE: "IC50"
  COMPARATIVE_SIGN: ">"
  TEST_RESULT: 30

====

Target: 5-hydroxytryptamine receptor 6 (Homo sapiens)
Sequence (P50406 whole entry): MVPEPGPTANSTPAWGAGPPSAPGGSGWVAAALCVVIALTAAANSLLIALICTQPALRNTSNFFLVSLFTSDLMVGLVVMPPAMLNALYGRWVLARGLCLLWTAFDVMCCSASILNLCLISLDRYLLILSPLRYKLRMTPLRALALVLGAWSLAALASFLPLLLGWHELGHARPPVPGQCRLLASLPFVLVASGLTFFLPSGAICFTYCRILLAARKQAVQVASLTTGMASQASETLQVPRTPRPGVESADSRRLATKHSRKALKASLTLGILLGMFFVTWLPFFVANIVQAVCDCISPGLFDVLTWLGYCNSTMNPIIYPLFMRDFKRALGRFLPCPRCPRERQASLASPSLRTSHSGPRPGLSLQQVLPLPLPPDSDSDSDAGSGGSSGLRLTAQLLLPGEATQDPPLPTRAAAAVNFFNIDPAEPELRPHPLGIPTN
READOUT_TYPE: Ki

- MOL: "C[C@@H]1CNC[C@H]2Cc3ccc(COCC4CC4)nc3N21"
  TEST_RESULT: "> 720 nM"

====

Biological target: 5-hydroxytryptamine receptor 2A (Homo sapiens, UniProt P28223)
Sequence (P28223 whole entry): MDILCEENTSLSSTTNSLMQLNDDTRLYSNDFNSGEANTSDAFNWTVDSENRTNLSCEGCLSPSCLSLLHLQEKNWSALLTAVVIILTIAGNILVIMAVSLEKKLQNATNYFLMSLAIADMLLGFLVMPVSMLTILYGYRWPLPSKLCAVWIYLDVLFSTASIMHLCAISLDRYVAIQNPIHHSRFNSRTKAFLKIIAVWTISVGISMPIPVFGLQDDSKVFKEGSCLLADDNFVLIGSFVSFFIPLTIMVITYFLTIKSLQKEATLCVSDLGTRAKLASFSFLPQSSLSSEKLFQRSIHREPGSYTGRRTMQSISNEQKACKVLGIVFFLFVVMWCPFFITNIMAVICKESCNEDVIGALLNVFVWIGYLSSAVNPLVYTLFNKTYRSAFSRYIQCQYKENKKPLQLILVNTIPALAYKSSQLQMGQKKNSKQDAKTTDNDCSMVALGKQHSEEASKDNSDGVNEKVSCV
Experiment: Displacement of [125I]DOI from human recombinant 5HT2A receptor expressed in CHO cells
pKi: −log10 of the molar value.
READOUT_TYPE: pKi

- COMPOUND: "Clc1ccc2c(n1)N1CCNCC1C2 (configuration not stated)"
  READOUT_TYPE: "pKi"
  TEST_RESULT: 6.66
- COMPOUND: "COc1ccc2c(n1)N1[C@@H](CNC[C@H]1C)C2"
  READOUT_TYPE: "pKi"
  TEST_RESULT: 6.29
- COMPOUND: "Cc1ccc2c(n1)N1[C@@H](CNC[C@H]1C)C2"
  READOUT_TYPE: "pKi"
  TEST_RESULT: 6.87
- COMPOUND: "C[C@@H]1CNC[C@H]2Cc3ccc(COCC4CC4)nc3N21"
  READOUT_TYPE: "pKi"
  TEST_RESULT: 7.13
- COMPOUND: "C[C@H](O)c1ccc2c(n1)N1[C@@H](CNC[C@H]1C)C2"
  READOUT_TYPE: "pKi"
  TEST_RESULT: 6.41
- COMPOUND: "C[C@@H]1CNC[C@H]2Cc3ccc(C#N)nc3N21"
  READOUT_TYPE: "pKi"
  TEST_RESULT: 5.59
- COMPOUND: "Cc1c(Cl)ccc2c1N1[C@H](CNC[C@H]1C)C2"
  READOUT_TYPE: "pKi"
  TEST_RESULT: 7.72
- COMPOUND: "COCc1ccc2c(n1)N1[C@@H](CNC[C@H]1C)C2"
  READOUT_TYPE: "pKi"
  TEST_RESULT: 6.25
- COMPOUND: "C[C@@H]1CNC[C@H]2Cc3ccc(Br)nc3N21"
  READOUT_TYPE: "pKi"
  TEST_RESULT: 7.28
- COMPOUND: "CCO[C@@H](C)c1ccc2c(n1)N1[C@@H](CNC[C@H]1C)C2"
  READOUT_TYPE: "pKi"
  TEST_RESULT: 7.19
- COMPOUND: "C[C@@H]1CNC[C@H]2Cc3ccc(Cl)nc3N21"
  READOUT_TYPE: "pKi"
  TEST_RESULT: 7.38
- COMPOUND: "CCO[C@H](C)c1ccc2c(n1)N1[C@@H](CNC[C@H]1C)C2"
  READOUT_TYPE: "pKi"
  TEST_RESULT: 5.62
